Compiled notes: published pKd values involving Somatostatin receptor type 2 (Homo sapiens, UniProt P30874).
Quick note: pKd values are minus log10 of concentrations in mol/L.

The observed pKd for C[C@@H](Cc1ccc2nsnc2c1)CN1C[C@@H]2CCCC[C@@H]2[C@H](C(=O)N2CCN(c3ccc(F)c(F)c3)CC2)C1 when tested with Somatostatin receptor type 2 (Homo sapiens, UniProt P30874) stands at 5.45

The observed pKd for COc1ccc(C[C@H](C)CN2C[C@@H]3CCCC[C@@H]3[C@H](C(=O)N3CCN(c4ccc(F)c(F)c4)CC3)C2)cn1.O=C(O)/C=C/C(=O)O when tested with Somatostatin receptor type 2 (Homo sapiens, UniProt P30874) stands at 5.34

The observed pKd for C[C@@H](O)[C@H](CO)NC(=O)[C@@H]1CSSC[C@H](NC(=O)[C@H](N)Cc2ccccc2)C(=O)N[C@@H](Cc2ccccc2)C(=O)N[C@H](Cc2c(C(F)(F)F)[nH]c3ccccc23)C(=O)N[C@@H](CCCCN)C(=O)N[C@@H]([C@@H](C)O)C(=O)N1 when tested with Somatostatin receptor type 2 (Homo sapiens, UniProt P30874) stands at 7.81

The observed pKd for CN(CCC(=O)N1CCN(c2ccc(F)c(F)c2)CC1)CCC1c2ccccc2-c2ccccc21.Cl when tested with Somatostatin receptor type 2 (Homo sapiens, UniProt P30874) stands at 4.91

The observed pKd for COc1ccc(C[C@@H](C)CN2C[C@H]3CCCC[C@H]3[C@@H](C(=O)N3CCN(c4ccc(F)c(F)c4)CC3)C2)cn1 when tested with Somatostatin receptor type 2 (Homo sapiens, UniProt P30874) stands at 4.42

The observed pKd for Cc1nc2cc(C[C@H](C)CN3C[C@@H]4CCCC[C@@H]4[C@H](C(=O)N4CCN(c5ccc(F)c(F)c5)CC4)C3)ccc2o1 when tested with Somatostatin receptor type 2 (Homo sapiens, UniProt P30874) stands at 5.26

The observed pKd for CN[C@H](Cc1ccccc1)C(=O)N[C@H]1CSSC[C@@H](C(=O)N[C@H](C(N)=O)[C@@H](C)O)NC(=O)[C@H]([C@@H](C)O)NC(=O)[C@H](CCCCN)NC(=O)[C@@H](Cc2c[nH]c3ccccc23)NC(=O)[C@H](Cc2ccccc2)NC1=O when tested with Somatostatin receptor type 2 (Homo sapiens, UniProt P30874) stands at 8.99
